# Tested on: K-562 leukemia
# test.details: NCI tumour cell line growth inhibition, 48 h
value.type: TGI

>>> result("N=C(N)C1CN(CCCCCCCCCCN2CC(C(=N)N)C(=O)NC2=O)C(=O)NC1=O (stereo not given)")
"> 10 µM"
>>> result("COC(=O)C1CC2CCC1(O[Si](C(C)C)(C(C)C)C(C)C)C(O)C2 (stereo not given)")
"28.9 µM"
>>> result("CN1CN(c2ccccc2)C2(CCN(Cc3csc4ccccc34)CC2)C1=O")
"> 100 µM"
>>> result("Cc1ccc2nc3c(=O)[nH]c(=O)nc-3n(C)c2c1C")
"> 100 µM"
>>> result("CCOC(=O)NC(Nc1ncccn1)(C(=O)OCC)C(F)(F)F (stereo not given)")
"> 100 µM"
>>> result("Cc1ccc2nc(Cl)c(/C=N/N3C(=O)/C(=C/c4cccc([N+](=O)[O-])c4)N=C3c3ccccc3)cc2c1")
"> 100 µM"
>>> result("N#CC(C#N)=C1c2ccccc2C(=NN)c2ccccc21")
"> 100 µM"
>>> result("Cc1ccc(S(=O)(=O)N2CCC(=O)c3cc(Br)ccc32)cc1")
"> 30.9 µM"
>>> result("CC(=O)NC1C(OC[C@@H](CC(=O)N[C@@H](CC(=O)O)CC(=O)N[C@H](CC(=O)N[C@@H](CCCN)CC(=O)N[C@@H](CCCN)CC(=O)N[C@H](CC(N)=O)C(C)C)C(C)C)NC(=O)C[C@@H](N)C(C)C)OC(CO)C(O)C1O (stereo not given in full)")
"> 100 µM"
>>> result("COc1ccc(-c2cc3c(c4cc(OC)ccc24)C(=O)OC3=O)cc1")
"> 100 µM"

Consider the following items and state reported TGI for each.
1. CCCCCC(C/C=N/N(C)C)C(O)(C(F)(F)F)C(F)(F)F (stereo not given)
2. O=c1ccn2n1Cc1ccccc1C2
3. CC(=O)C1(Cc2cccc3ccccc23)S(=O)(=O)OCCOS1(=O)=O

Found:
1. > 100 µM
2. > 100 µM
3. > 100 µM
